Reference for the values: the RNAGym collection of RNA variant scans (doi:10.1093/nar/gkz1192)

A collection of variants and their measured self-cleavage
B1: CPEB3 Ribozyme (parent)
chain: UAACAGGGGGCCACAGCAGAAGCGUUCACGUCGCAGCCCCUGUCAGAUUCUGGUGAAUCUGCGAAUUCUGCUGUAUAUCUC

variants of: B1; test: self-cleavage, relative activity (ratio to wild type); higher = more cleavage; in vitro, sequencing
Output: the number by itself.

Sample answers from the record:
mutation	self-cleavage
C14A A20G	0.96
G8A C62A	0.07
C32A A45U	0.35
C11G G30U	0.09
G33C U43A	0.18

With those in mind, consider the next variant.
C37G U48C yielded self-cleavage of 0.45
